src = patent US20190241669A1

SYSTEM_TESTED: Human BCMA (human) (UniProt Q02223)
PROCEDURE_SUMMARY: SPR, IgG on chip, huBCMA analyte
kon reference
Supply the numeric figure in M⁻¹ s⁻¹, leaving out any unit text.

Q) Name the reported kon value associated with the binder C01_Rd4_6nM_C09 (antibody, V domains shown, IgG) VH: EVQLLESGGGLVQPGGSLRLSCAASGFTFSSYPMSWVRQAPGKGLEWVSATVGSGGSIGYADSVKGRFTISRDNSKNTLYLQMNSLRAEDTAVYYCARYWPMDSWGQGTLVTVSS VL: EIVLTQSPGTLSLSPGERATLSCACSQSVSSTYLAWYQQKPGQAPRLLIYDASSRAPGIPDRFSGSGSGTDFTLTISRLEPEDFAVYYCQQYSAWPLTFGQGTKVEIK
A) 1.58e+07

More entries:
Q) Dear colleague, I am looking for the recorded kon of the following binder: COMBO_Rd4_0.6nM_C05 (antibody, V domains shown, IgG) VH: EVQLLESGGGLVQPGGSLRLSCAASGFTFSSYAMNWVRQAPGKGLEWVSAIGGSGGSTYYADSVKGRFTISRDNSKNTLYLQMNSLRAEDTAVYYCARYWPMSLWGQGTLVTVSS VL: EIVLTQSPGTLSLSPGERATLSCRASQSVSSTYLAWYQQKPGQAPRLLMYDASIRATGIPDRFSGSGSGTDFTLTISRLEPEDFAVYYCQQYMSWPLTFGQGTKVEIK
A) 4.32e+06
